target: Flpp3
measurement.description: yeast display titration
Not all results are given here. No count for the full screen is at hand.
// values below are reported apparent Kd

{"columns": ["binder", "apparent Kd"],
 "data": [
  ["ac710d00df0a15e663fb636f306744b3_0001_1_000000013_dldesign_0_cycle1_af2pred_0001 (protein) GIRERAREMAKKHGVSDEELQPVIDLVEKMRAEGKSIEEIARELGEKLAETGNKAYACVLEALAE", "> 0.105 µM (inactive)"],
  ["HHH_b1_08653_000000138_dldesign_0_cycle1_af2pred_0001 (protein) GSGGSGASLAAEDILRAMRQFARAGKPEAVRDLAKKGIKIMTEAGRPDEAKRIEEELARLGGSGG", "> 134 µM (inactive)"],
  ["HHH_b2_07220_000000120_dldesign_0_cycle1_af2pred_0001 (protein) SGGSEESKKLVEETIKKAKKLVEEGNPLEAKILLRKTLLDLSELGDDEGFSKLSKFLDEIEGGSG", "> 4.46 µM (inactive)"]
]}

Shift focus to the following entry.
# input State the recorded apparent Kd for this entry: HHH_b1_08438_000000177_dldesign_0_cycle1_af2pred_0001 (protein) GGSGGSAEEEVEKLIEEAKNNPDKEKAEELLSRALKLADAAGNVDLRSKTMNALFDVLGGSGGSG
# output > 11.6 µM (inactive)
